Hello, the source for this data is ChEMBL document CHEMBL1955844, in case you need it.

Target: MAP kinase-activated protein kinase 5 (Homo sapiens)
Sequence (Q8IW41 whole entry): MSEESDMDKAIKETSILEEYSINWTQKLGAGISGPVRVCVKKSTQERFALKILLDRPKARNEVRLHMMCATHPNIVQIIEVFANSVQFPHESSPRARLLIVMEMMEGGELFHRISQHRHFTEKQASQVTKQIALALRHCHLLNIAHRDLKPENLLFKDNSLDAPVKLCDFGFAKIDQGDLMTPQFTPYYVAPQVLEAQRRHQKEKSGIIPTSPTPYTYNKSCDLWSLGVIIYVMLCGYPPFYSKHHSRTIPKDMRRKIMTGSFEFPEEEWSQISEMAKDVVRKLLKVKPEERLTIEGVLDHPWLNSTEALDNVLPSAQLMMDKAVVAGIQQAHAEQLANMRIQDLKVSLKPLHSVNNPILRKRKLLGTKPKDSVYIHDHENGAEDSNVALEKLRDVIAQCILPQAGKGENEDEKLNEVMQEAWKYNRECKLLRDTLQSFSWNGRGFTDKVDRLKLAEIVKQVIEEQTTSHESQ
Assay: Inhibition of MAPKAPK5
pIC50: −log10 of the molar value.
The entries below come with measured pIC50 values attached.
recorded-metric: pIC50

[[record]]
chemical_smiles = "CN(C)c1cc(-c2cnc(Nc3ccc(N4CCOCC4)cc3)c3nccn23)ccn1"
measured_on = "MAP kinase-activated protein kinase 5 (Homo sapiens)"
recorded_metric = "pIC50"
lt_gt_eq = "<"
numeric_value = 5.00

[[record]]
chemical_smiles = "CN1CCN(c2ccc(Nc3ncc(-c4cc[nH]c(=O)c4)n4ncnc34)cc2)CC1"
measured_on = "MAP kinase-activated protein kinase 5 (Homo sapiens)"
recorded_metric = "pIC50"
lt_gt_eq = "="
numeric_value = 5.43

[[record]]
chemical_smiles = "CN(c1ccc(N2CCOCC2)cc1)c1ncc(-c2cn[nH]c2)n2ccnc12"
measured_on = "MAP kinase-activated protein kinase 5 (Homo sapiens)"
recorded_metric = "pIC50"
lt_gt_eq = "<"
numeric_value = 5.00

[[record]]
chemical_smiles = "c1cn2c(-c3c[nH]nn3)cnc(Nc3ccc(N4CCOCC4)cc3)c2n1"
measured_on = "MAP kinase-activated protein kinase 5 (Homo sapiens)"
recorded_metric = "pIC50"
lt_gt_eq = "="
numeric_value = 5.83

[[record]]
chemical_smiles = "NC(=O)c1ccc(-c2cnc(Nc3ccc(N4CCOCC4)cc3)c3nccn23)cc1F"
measured_on = "MAP kinase-activated protein kinase 5 (Homo sapiens)"
recorded_metric = "pIC50"
lt_gt_eq = "="
numeric_value = 5.62

